These entries and their values trace back to ChEMBL document CHEMBL5723035.

# target or test system: UniProt P07711
# Sequence (P07711 whole entry): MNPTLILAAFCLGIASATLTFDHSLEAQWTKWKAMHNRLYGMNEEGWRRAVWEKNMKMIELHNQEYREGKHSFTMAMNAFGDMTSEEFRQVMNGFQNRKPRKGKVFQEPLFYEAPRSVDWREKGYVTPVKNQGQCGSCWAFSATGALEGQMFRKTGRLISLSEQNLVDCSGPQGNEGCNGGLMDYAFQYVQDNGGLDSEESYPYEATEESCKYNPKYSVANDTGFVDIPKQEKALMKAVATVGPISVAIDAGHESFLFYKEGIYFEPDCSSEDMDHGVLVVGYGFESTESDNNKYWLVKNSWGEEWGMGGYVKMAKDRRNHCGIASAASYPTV
# test details: Affinity Biochemical interaction: (enzymatic assay (fluorogenic substrate cleavage)) EUB0002529a CTSL
recorded metric: Ki

molecule="Cn1nc(C(C)(C)C)cc1C(=O)NC(Cc1cccc(Cl)c1)C(=O)NCC#N (stereo unspecified)" recorded_metric=Ki experimental_value="82 nM"

====

# target or test system: Dual specificity calcium/calmodulin-dependent 3',5'-cyclic nucleotide phosphodiesterase 1A (Homo sapiens, UniProt P54750)
# Sequence (P54750 whole entry): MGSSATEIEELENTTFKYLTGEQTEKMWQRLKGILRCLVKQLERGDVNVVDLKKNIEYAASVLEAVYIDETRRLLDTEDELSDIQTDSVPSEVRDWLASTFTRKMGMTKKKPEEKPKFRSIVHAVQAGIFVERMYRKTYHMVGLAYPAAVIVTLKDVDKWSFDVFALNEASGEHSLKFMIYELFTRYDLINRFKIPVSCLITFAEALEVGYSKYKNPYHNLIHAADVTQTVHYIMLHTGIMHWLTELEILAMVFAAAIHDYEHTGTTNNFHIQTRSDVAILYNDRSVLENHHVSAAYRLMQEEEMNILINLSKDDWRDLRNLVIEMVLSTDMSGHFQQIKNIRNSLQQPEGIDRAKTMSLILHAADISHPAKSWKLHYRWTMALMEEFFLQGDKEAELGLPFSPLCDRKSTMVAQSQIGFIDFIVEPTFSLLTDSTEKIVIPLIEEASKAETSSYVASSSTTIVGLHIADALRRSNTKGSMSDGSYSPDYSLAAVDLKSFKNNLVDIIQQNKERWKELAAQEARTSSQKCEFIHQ
# test details: Affinity Biochemical interaction: (inhibition of [3H]cGMP cleavage, scintillation proximity assay) EUB0002562a PDE1A
recorded metric: IC50 (nM)

smiles_representation=Cn1c(OC[C@H]2CC[C@H](C(F)(F)F)CC2)nn2c(C3CCOCC3)ncc2c1=O recorded_metric=IC50 unit_info=nM experimental_value=97.6

====

# target or test system: 3',5'-cyclic-AMP phosphodiesterase 4D (Homo sapiens, UniProt Q08499)
# Sequence (Q08499 whole entry): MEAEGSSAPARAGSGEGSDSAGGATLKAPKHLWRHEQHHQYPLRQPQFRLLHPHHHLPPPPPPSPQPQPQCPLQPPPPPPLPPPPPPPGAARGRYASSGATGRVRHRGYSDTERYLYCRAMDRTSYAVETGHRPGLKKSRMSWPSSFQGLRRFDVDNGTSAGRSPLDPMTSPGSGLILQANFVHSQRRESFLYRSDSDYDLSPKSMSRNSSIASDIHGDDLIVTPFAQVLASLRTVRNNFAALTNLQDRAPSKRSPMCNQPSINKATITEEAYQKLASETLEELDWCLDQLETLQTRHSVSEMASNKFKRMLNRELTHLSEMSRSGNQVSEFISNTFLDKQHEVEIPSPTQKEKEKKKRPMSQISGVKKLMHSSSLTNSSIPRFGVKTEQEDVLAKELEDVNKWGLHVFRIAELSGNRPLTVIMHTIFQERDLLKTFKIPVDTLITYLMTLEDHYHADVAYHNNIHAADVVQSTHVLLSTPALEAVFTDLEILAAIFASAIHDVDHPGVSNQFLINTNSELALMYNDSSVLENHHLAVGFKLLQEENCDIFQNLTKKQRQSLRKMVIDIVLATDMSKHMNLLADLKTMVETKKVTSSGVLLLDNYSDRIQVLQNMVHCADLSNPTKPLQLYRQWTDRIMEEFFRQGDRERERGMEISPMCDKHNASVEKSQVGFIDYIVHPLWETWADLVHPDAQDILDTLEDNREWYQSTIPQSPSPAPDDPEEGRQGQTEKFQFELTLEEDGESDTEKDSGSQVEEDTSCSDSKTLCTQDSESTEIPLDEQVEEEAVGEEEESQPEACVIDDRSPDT
# test details: Affinity Biochemical interaction: (radioligand binding assay, inhibition of [3H]cAMP or [3H]cGMP cleavage) EUB0002534a PDE4D
# Design: mode of action Inhibitor, recommended concentration 1 uM
recorded metric: IC50 (µM)

smiles_representation=Nc1cc2c3c(c1)C(c1ccccc1)=N[C@@H](NC(=O)c1cccnc1)C(=O)N3CC2 target_or_test_system="3',5'-cyclic-AMP phosphodiesterase 4D (Homo sapiens, UniProt Q08499)" recorded_metric=IC50 unit_info=µM experimental_value=0.09

====

# target or test system: Nucleotide triphosphate diphosphatase NUDT15 (Homo sapiens)
# Sequence (Q9NV35 whole entry): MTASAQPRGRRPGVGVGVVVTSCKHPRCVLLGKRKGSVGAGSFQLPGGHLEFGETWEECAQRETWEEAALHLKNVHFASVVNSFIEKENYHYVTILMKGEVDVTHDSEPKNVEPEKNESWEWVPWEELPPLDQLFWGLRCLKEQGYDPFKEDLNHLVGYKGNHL
# test details: Affinity Biochemical interaction: (enzyme-coupled MG (Malachite Green) assay with […]) EUB0002330a NUDT15
# Assay type: functional
# Parameters: mode of action Inhibitor, recommended concentration 1 uM
recorded metric: IC50 (nM)

smiles_representation=O=C(c1ccc2[nH]ccc2c1)N1CCN(S(=O)(=O)c2ccc3[nH]c(=O)oc3c2)CC1 target_or_test_system="Nucleotide triphosphate diphosphatase NUDT15 (Homo sapiens)" unit_info=nM experimental_value=25

====

# target or test system: UniProtKB P55211
# Sequence (P55211 1-315 limits assumed): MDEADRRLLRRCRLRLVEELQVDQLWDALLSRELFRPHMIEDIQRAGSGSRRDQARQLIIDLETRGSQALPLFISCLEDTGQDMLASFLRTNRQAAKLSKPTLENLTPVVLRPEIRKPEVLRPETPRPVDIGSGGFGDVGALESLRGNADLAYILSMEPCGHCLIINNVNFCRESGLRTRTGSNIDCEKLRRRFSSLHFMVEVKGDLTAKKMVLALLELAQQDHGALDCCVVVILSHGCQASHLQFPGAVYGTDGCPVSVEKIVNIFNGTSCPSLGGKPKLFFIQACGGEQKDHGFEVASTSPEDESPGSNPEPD
# Sequence (P55211 331-416 limits assumed): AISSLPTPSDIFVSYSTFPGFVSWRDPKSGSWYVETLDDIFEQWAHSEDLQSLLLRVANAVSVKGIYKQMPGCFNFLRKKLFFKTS
# test details: Affinity Biochemical interaction: (enzymatic assay (fluorogenic substrate cleavage)) EUB0002190aAD CASP9
pKi: −log10 of the molar value. Residues, ends and D or L forms follow the SMILES beside them. *: point of attachment. Boc = CC(C)(C)OC(=O)*
recorded metric: pKi

compound="CC(C)[C@H](NC(=O)[C@H](CCC(=O)O)NC(=O)[C@H](C)NC(=O)OC(C)(C)C)C(=O)N[C@H](C=O)CC(=O)O (Boc-AEVD-aldehyde)" experimental_value=7.32

====

# target or test system: Caspase-1 (Homo sapiens)
# Sequence (P29466 120-297 limits assumed): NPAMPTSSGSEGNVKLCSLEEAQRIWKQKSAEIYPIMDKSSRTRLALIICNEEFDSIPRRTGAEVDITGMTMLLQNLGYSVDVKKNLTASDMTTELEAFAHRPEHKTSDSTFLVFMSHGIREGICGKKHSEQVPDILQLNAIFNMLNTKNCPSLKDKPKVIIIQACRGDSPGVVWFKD
# Sequence (P29466 317-404 limits assumed): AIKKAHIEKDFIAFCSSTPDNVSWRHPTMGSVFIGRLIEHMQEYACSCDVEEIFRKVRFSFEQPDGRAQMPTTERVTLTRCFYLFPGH
# test details: Affinity Biochemical interaction: (enzymatic assay (fluorogenic substrate cleavage)) EUB0002198aAD CASP1
Residues, ends and D or L forms follow the SMILES beside them.
recorded metric: IC50

molecule="CC(=O)N[C@@H](CC(C)C)C(=O)N[C@@H](CCC(=O)O)C(=O)N[C@@H](Cc1cnc[nH]1)C(=O)N[C@H](C=O)CC(=O)O (Ac-LEHD-aldehyde)" target_or_test_system="Caspase-1 (Homo sapiens)" experimental_value="15 nM"

====

# target or test system: Caspase-8 (Homo sapiens, UniProt Q14790)
# Sequence (Q14790 217-374 limits assumed): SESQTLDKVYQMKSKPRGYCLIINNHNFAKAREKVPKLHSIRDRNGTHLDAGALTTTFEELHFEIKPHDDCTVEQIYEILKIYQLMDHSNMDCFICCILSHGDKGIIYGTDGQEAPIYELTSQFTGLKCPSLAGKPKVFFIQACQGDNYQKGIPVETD
# Sequence (Q14790 385-479 limits assumed): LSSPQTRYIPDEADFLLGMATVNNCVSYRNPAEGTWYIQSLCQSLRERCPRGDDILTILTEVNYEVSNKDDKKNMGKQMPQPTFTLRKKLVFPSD
# test details: Affinity Biochemical interaction: (enzymatic assay (fluorogenic substrate cleavage)) EUB0002198aAD CASP8
# Type: functional
# Design: mode of action Inhibitor, recommended concentration 1 uM
pIC50: −log10 of the molar value. Residues, ends and D or L forms follow the SMILES beside them.
recorded metric: pIC50

compound="CC(=O)N[C@@H](CC(C)C)C(=O)N[C@@H](CCC(=O)O)C(=O)N[C@@H](Cc1cnc[nH]1)C(=O)N[C@H](C=O)CC(=O)O (Ac-LEHD-aldehyde)" target_or_test_system="Caspase-8 (Homo sapiens, UniProt Q14790)" recorded_metric=pIC50 experimental_value=8.42

====

# target or test system: UniProt:P61964
# test details: Affinity Biochemical interaction: (Fluorescence polarisation anisotropy) EUB0002166aAD WDR5
# Assay type: functional
# Set-up: mode of action Inhibitor, recommended concentration 1 uM
pKi: −log10 of the molar value.
recorded metric: pKi

smiles_representation=Cc1nc(F)ccc1-c1cc(Cn2ccn(C)c2=N)cc(C(=O)NCc2ccc(Cl)c(Cl)c2)c1 recorded_metric=pKi experimental_value="> 12.00"

====

# target or test system: Caspase-8 (Homo sapiens)
# test details: Affinity Biochemical interaction: (enzymatic assay (fluorogenic substrate cleavage)) EUB0002177aAD CASP8
# Assay type: functional
# Set-up: mode of action Inhibitor, recommended concentration 1 uM
Residues, ends and D or L forms follow the SMILES beside them.
recorded metric: IC50

compound="CC[C@H](C)[C@H](NC(C)=O)C(=O)N[C@@H](CCC(=O)O)C(=O)N[C@H](C(=O)N[C@H](C=O)CC(=O)O)[C@@H](C)O (Ac-IETD-aldehyde)" recorded_metric=IC50 experimental_value="5 nM"

====

# target or test system: Histone deacetylase 1 (Homo sapiens, UniProt Q13547)
# Sequence (Q13547 whole entry): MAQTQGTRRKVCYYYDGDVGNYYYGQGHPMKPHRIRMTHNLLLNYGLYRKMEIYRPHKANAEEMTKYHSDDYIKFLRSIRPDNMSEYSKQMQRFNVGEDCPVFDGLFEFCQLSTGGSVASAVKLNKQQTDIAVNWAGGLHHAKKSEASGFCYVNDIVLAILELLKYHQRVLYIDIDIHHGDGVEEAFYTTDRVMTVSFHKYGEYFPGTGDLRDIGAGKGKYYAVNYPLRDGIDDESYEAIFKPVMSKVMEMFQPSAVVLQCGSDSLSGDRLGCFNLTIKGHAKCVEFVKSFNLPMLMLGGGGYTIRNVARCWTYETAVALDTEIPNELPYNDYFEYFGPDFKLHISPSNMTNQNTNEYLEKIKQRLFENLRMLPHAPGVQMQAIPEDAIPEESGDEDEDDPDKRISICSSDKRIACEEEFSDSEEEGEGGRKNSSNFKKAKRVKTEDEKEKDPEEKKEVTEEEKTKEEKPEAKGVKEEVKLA
# test details: Affinity Biochemical interaction: (fluorometric activity assay) EUB0002519a HDAC1
pIC50: −log10 of the molar value.
recorded metric: pIC50

smiles_representation=Nc1ccc(-c2cccs2)cc1NC(=O)c1ccc(NC=O)cc1 experimental_value=7.40

====

# target or test system: Histone-lysine N-methyltransferase SETD7 (Homo sapiens, UniProt Q8WTS6)
# Sequence (Q8WTS6 whole entry): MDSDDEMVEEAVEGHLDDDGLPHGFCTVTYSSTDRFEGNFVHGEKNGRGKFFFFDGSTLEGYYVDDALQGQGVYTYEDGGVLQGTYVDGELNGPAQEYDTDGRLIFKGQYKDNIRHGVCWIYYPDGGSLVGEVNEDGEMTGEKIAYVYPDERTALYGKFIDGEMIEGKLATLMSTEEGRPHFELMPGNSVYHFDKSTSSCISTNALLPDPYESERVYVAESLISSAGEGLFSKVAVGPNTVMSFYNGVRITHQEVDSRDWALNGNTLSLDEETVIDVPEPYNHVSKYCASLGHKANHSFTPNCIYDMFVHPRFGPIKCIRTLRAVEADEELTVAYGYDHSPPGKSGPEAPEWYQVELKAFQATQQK
# test details: Affinity Biochemical interaction: (inhibition of histone H3 methylation) EUB0002319a SETD7
# Type: functional
# Set-up: mode of action Inhibitor, recommended concentration 1 uM
recorded metric: IC50 (µM)

smiles_representation=Nc1ncnc2c1ncn2[C@@H]1O[C@H](C[C@@H](N)CC[C@H](N)C(=O)O)[C@@H](O)[C@H]1O experimental_value=9.1

====

# target or test system: Bromodomain-containing protein 4 (Homo sapiens, UniProt O60885)
# test details: Affinity Biochemical interaction: (AlphaLISA) EUB0002282a BRD4
# Assay type: functional
# Design: mode of action Inhibitor, recommended concentration 1 uM
recorded metric: Kd (nM)

smiles_representation=Cc1cc(-c2ccc3nc(C4CCOCC4)n(CCOC(F)(F)F)c3c2)cn(C)c1=O experimental_value=7.6

====

# target or test system: UniProtKB P07711
# test details: Affinity Biochemical interaction: (Colorimetric assay, lysis of casein substrate and analysis of protease inhibition by reading wavelength at 595 nm) EUB0002195a CTSL
pIC50: −log10 of the molar value.
recorded metric: pIC50

smiles_representation=CC(C)C[C@@H](C=O)NC(=O)[C@@H](NS(=O)(=O)c1ccc(F)cc1)C(C)C experimental_value=8.80

====

# target or test system: 3',5'-cyclic-AMP phosphodiesterase 4B (Homo sapiens, UniProt Q07343)
# Sequence (Q07343 whole entry): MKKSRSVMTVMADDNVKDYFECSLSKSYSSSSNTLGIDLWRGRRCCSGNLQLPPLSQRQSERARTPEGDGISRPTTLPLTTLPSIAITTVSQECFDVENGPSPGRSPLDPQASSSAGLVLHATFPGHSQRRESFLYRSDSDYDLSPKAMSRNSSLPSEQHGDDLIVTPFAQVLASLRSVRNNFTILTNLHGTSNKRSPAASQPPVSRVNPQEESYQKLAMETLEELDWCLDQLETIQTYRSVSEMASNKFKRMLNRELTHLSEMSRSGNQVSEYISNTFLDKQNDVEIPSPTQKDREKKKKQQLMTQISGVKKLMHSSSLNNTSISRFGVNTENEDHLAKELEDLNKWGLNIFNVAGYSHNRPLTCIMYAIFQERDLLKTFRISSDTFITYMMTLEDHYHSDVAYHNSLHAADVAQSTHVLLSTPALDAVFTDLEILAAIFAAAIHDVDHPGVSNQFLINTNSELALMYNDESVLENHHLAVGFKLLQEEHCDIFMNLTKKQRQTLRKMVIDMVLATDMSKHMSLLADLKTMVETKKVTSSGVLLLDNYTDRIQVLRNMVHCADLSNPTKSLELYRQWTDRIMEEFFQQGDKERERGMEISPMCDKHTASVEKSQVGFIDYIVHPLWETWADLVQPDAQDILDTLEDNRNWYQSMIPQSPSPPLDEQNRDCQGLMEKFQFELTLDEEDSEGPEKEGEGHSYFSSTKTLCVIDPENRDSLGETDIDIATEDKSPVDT
# test details: Affinity Biochemical interaction: (radioligand binding assay, inhibition of [3H]cAMP or [3H]cGMP cleavage) EUB0002534a PDE4B
# Parameters: mode of action Inhibitor, recommended concentration 1 uM
recorded metric: IC50

smiles_representation=Nc1cc2c3c(c1)C(c1ccccc1)=N[C@@H](NC(=O)c1cccnc1)C(=O)N3CC2 recorded_metric=IC50 experimental_value="80 nM"

====

# target or test system: Caspase-7 (Homo sapiens, UniProt P55210)
# Sequence (P55210 24-198 limits assumed): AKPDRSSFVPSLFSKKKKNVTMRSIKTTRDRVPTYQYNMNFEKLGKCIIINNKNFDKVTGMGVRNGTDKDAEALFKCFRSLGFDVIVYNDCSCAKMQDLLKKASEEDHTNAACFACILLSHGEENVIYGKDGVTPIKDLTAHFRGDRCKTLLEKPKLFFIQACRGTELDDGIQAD
# Sequence (P55210 207-303 limits assumed): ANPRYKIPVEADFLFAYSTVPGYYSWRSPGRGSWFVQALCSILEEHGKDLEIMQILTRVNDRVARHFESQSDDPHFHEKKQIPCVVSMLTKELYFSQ
# test details: Affinity Biochemical interaction: (enzymatic assay (fluorogenic substrate cleavage)) EUB0002196a CASP7
# Type: functional
# Parameters: mode of action Inhibitor, recommended concentration 1 uM
pKi: −log10 of the molar value. Residues, ends and D or L forms follow the SMILES beside them.
recorded metric: pKi

compound="CC(=O)N[C@H](C(=O)N[C@@H](CC(=O)O)C(=O)N[C@H](C(=O)N[C@@H](C)C(=O)N[C@H](C=O)CC(=O)O)C(C)C)C(C)C (Ac-VDVAD-aldehyde)" recorded_metric=pKi experimental_value=8.12

====

# target or test system: Protein arginine N-methyltransferase 6 (Homo sapiens)
# Sequence (Q96LA8 whole entry): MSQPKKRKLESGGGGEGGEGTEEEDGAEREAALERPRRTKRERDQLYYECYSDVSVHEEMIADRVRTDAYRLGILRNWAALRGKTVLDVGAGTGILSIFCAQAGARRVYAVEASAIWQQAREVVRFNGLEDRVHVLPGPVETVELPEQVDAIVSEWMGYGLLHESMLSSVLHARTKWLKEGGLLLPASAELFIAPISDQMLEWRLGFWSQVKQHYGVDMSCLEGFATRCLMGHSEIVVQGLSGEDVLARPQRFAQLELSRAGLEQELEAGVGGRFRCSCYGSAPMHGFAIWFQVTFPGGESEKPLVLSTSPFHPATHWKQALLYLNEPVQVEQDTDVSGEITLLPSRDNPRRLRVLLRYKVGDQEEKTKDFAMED
# test details: Affinity Biochemical interaction: (enzymatic assay (inhibition of methyl transfer from radiolabelled substrate [3H]SAM to peptide)) EUB0002245aCl PRMT6
pKi: −log10 of the molar value.
recorded metric: pKi

smiles_representation=CCOCC1(COCC)CCC(c2n[nH]cc2CN(C)CCNC)CC1 target_or_test_system="Protein arginine N-methyltransferase 6 (Homo sapiens)" recorded_metric=pKi experimental_value=8.62
